- TEST TARGET: Melanocortin receptor 5 (Homo sapiens, UniProt P33032); further: in other assays of this panel Not Active means under 50% inhibition at 10 µM
- Sequence (P33032 whole entry): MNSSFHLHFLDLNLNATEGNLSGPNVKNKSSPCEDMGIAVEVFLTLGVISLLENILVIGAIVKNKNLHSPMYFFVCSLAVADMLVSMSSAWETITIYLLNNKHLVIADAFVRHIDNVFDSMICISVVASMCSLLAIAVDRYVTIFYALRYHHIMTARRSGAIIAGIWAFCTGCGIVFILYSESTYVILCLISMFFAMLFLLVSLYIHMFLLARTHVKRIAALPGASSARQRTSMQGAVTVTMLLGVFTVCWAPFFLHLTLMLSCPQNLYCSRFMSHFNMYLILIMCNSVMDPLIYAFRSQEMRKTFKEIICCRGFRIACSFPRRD
- Type: cell membranes, HEK293, Membrane
- TEST PARAMETERS: hek293; read-out: IC50
OBSERVED PROPERTY: IC50
Report field: quantity (unit follows the number).

Problem: Specify reported IC50 for the sequence shown: GRAMICIDIN
Result: 2010 nM

----------
- TEST TARGET: Glycine receptor (Rattus norvegicus, UniProt P22771+P24524+P07727+P20781); further: in other assays of this panel Not Active means under 50% inhibition at 10 µM
- Assay type: cell membranes, Wistar, Spinal cord, Membrane
OBSERVED PROPERTY: IC50

Some compounds with recorded IC50:
Clc1ccccc1CN1CCc2sccc2C1; Not Active
CCn1cc(C(=O)O)c(=O)c2cnc(N3CCCC3)nc21; Not Active
COc1ccc2cc3[n+](cc2c1OC)CCc1cc2c(cc1-3)OCO2.[Cl-] [BERBERINE CHLORIDE]; Not Active
O=c1cnn([C@@H]2O[C@H](CO)[C@@H](O)[C@H]2O)c(=O)[nH]1; Not Active
CC(=O)Oc1ccc(C(c2ccc(OC(C)=O)cc2)c2ccccn2)cc1; Not Active
Fc1ccc(C(c2ccc(F)cc2)N2CCN(C/C=C/c3ccccc3)CC2)cc1; Not Active
CC(C)NCC(O)COc1cccc2[nH]ccc12 (centres undefined); Not Active
O=C1Nc2ccc(Cl)cc2C(c2ccccc2Cl)=NC1O (centres undefined); Not Active

Let's switch to this compound now.
Problem: Specify reported IC50 for the compound shown: CN[C@H]1CC[C@@H](c2ccc(Cl)c(Cl)c2)c2ccccc21
Result: Not Active

----------
- TEST TARGET: Cytochrome P450 2C9 (Homo sapiens); further: in other assays of this panel Not Active means under 50% inhibition at 10 µM
- Sequence (P11712 whole entry): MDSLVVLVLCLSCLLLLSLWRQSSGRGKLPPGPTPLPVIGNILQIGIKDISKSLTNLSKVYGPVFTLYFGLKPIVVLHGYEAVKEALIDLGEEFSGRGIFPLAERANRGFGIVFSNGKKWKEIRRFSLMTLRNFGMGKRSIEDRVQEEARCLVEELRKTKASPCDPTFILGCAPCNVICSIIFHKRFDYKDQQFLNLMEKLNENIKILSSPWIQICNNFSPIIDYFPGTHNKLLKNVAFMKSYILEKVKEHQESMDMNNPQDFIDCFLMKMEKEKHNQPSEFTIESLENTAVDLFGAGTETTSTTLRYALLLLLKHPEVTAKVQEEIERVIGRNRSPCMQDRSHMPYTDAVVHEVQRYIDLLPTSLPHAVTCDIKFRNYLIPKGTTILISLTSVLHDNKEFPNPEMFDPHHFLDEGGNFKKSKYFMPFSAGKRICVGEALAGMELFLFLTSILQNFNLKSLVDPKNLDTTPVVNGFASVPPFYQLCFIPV
- TEST PARAMETERS: bti-tn-5b1-4
OBSERVED PROPERTY: IC50

NNc1nncc2ccccc12 [HYDRALAZINE]; Not Active
CC(c1cc2ccccc2s1)N(O)C(N)=O (stereo not given); Not Active
O=C(Oc1ccccc1C(=O)O)c1ccccc1O [SALSALATE]; Not Active
CCN(CC)CCOc1ccc(/C(=C(/Cl)c2ccccc2)c2ccccc2)cc1; Not Active
CNCCC(Oc1ccc(C(F)(F)F)cc1)c1ccccc1 (stereo not given); Not Active

Problem: Specify reported IC50 for the compound shown: O=C(O)CCNC(=O)c1ccccc1
Result: Not Active

Problem: Specify reported IC50 for the compound shown: N#Cc1ccc(C(c2ccc(C#N)cc2)n2cncn2)cc1
Result: Not Active

----------
- TEST TARGET: D(1A) dopamine receptor (Homo sapiens)
- Sequence (P21728 whole entry): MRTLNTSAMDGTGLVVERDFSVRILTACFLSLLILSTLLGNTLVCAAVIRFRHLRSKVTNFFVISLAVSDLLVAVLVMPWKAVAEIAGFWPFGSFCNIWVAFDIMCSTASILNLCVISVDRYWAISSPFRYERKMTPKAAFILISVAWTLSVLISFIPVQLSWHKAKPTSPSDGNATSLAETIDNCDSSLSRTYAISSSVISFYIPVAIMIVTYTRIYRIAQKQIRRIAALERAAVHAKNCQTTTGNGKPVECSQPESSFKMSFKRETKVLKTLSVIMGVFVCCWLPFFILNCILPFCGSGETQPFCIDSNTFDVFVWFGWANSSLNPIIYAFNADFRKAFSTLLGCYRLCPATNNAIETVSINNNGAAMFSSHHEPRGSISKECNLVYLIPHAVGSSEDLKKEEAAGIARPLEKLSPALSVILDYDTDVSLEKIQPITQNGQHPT
- EXPERIMENT DESCRIPTION: DRUGMATRIX: Dopamine D1 radioligand binding (ligand: [3H] SCH-23390)
- Assay type: cell membranes, CHO, Membrane
- TEST PARAMETERS: cho; Not Active = under 50% inhibition at 10 µM
OBSERVED PROPERTY: IC50

Some compounds with recorded IC50:
O=c1cnn([C@@H]2O[C@H](CO)[C@@H](O)[C@H]2O)c(=O)[nH]1 [6-AZAURIDINE]; Not Active
COC(=O)Nc1nc2ccc(C(=O)c3cccs3)cc2[nH]1 [NOCODAZOLE]; Not Active
CCN1CCC[C@H]1CNC(=O)c1cc(S(N)(=O)=O)ccc1OC [LEVOSULPIRIDE]; Not Active
CC[C@@H](C(=O)[C@@H](C)[C@@H](O)[C@H](C)[C@@H]1O[C@@H]([C@@H](CC)C(=O)O)CC[C@@H]1C)[C@H]1O[C@]2(C=C[C@@H](O)[C@]3(CC[C@@](C)([C@H]4CC[C@](O)(CC)[C@H](C)O4)O3)O2)[C@H](C)C[C@@H]1C [SALINOMYCIN]; Not Active
CC(c1cc2ccccc2s1)N(O)C(N)=O (stereo unspecified) [ZILEUTON]; Not Active
NC1CCN(c2nc3c(cc2F)c(=O)c(C(=O)O)cn3-c2ccc(F)cc2F)C1 (stereo unspecified) [TOSUFLOXACIN]; Not Active
CCCCOc1cc(CC2CNC(=O)N2)ccc1OC (stereo unspecified) [RO-201724]; Not Active
Cn1c(=O)c2[nH]cnc2n(C)c1=O.Cn1c(=O)c2[nH]cnc2n(C)c1=O.NCCN [AMINOPHYLLINE]; Not Active

Let's switch to this compound now.
Problem: Specify reported IC50 for the compound shown: CCCNCC(O)COc1ccccc1C(=O)CCc1ccccc1 (stereo unspecified) [PROPAFENONE]
Result: Not Active
